- target-under-test: alkaline phosphatase (Bos taurus, UniProt P19111)
- assay-remarks: Chemiluminescent signal and signal:background with enhancer polymers (Example XVII)
- Type: biochemical
- measurement-context: polymer DMQ TEQ; 5 min
result-type: SIGNAL

> print(dat)
                                   compound  result.type  measurement
1  COC1(c2cccc(OP(=O)(O)O)c2)OOC12C1CC3CC2CC(Cl)(C3)C1 (stereo not shown)       SIGNAL      39712.8
2  COC1(c2cccc(OP(=O)(O)O)c2)OOC12C1CC3CC2CC(O)(C3)C1 (single isomer, unassigned) [A-OH-AMPPD]       SIGNAL      17235.6
3  COC1(c2cccc(OP(=O)(O)O)c2)OOC12C1CC3CC2CC(O)(C3)C1 (single isomer, unassigned) [B-OH-AMPPD]       SIGNAL       9213.8
4  COC1(c2cccc(OP(=O)(O)O)c2)OOC12C1CC3CC(C1)CC2C3 (stereo not shown) [AMPPD, reference compound]       SIGNAL      32820.5

---

- target-under-test: alkaline phosphatase (Bos taurus, UniProt P19111)
- assay-remarks: Chemiluminescent signal-to-noise levels with enhancers (Example XXIV)
- Assay type: biochemical
- measurement-context: SAPPHIRE 2 1 mg/ml; 20 min
result-type: chemiluminescent signal-to-noise level

> print(dat)
                                   compound                             result.type  measurement
1  COC1(c2cccc(OP(=O)(O)O)c2)OOC12C1CC3CC2CC(O)(C3)C1 (single isomer, unassigned)  chemiluminescent signal-to-noise level          643
2  COC1(c2cccc(OP(=O)(O)O)c2)OOC12C1CC3CC2CC(Br)(C3)C1 (stereo not shown)  chemiluminescent signal-to-noise level         1019
3  COC1(c2cccc(OP(=O)(O)O)c2)OOC12C1CC3CC2CC(Cl)(C3)C1 (stereo not shown)  chemiluminescent signal-to-noise level         2221
4  COC1(c2cccc(OP(=O)(O)O)c2)OOC12C1CC3CC(C1)CC2C3 (stereo not shown) [AMPPD, reference compound]  chemiluminescent signal-to-noise level          434

---

- target-under-test: alkaline phosphatase (Bos taurus)
- assay-remarks: Chemiluminescent signal-to-noise levels with enhancers (Example XXIV)
- Type: biochemical
- measurement-context: EMERALD 1 1 mg/ml; 5 min
result-type: chemiluminescent signal-to-noise level

> print(dat)
                                   molecule  measurement
1  COC1(c2cccc(OP(=O)(O)O)c2)OOC12C1CC3CC2CC(O)(C3)C1 (single isomer, unassigned)          307
2  COC1(c2cccc(OP(=O)(O)O)c2)OOC12C1CC3CC2CC(Cl)(C3)C1 (stereo not shown)          583
3  COC1(c2cccc(OP(=O)(O)O)c2)OOC12C1CC3CC2CC(Br)(C3)C1 (stereo not shown)          149
4  COC1(c2cccc(OP(=O)(O)O)c2)OOC12C1CC3CC(C1)CC2C3 (stereo not shown) [AMPPD, reference compound]          109

---

Form field: Detection limit for alkaline phosphatase (one value per entry).
- target-under-test: alkaline phosphatase (Bos taurus, UniProt P19111)
- assay-remarks: Detection limits for alkaline phosphatase, Berthold LB952T (Example XXII)
- Type: biochemical
- measurement-context: ENHANCER 2; 20 MIN; twice background
result-type: Detection limit for alkaline phosphatase (femtomoles/liter)

> print(dat)
                                   compound       units.label  measurement
1  COC1(c2cccc(OP(=O)(O)O)c2)OOC12C1CC3CC(C1)CC2C3 (stereo not shown) [AMPPD, reference compound]  femtomoles/liter          1.1
2  COC1(c2cccc(OP(=O)(O)O)c2)OOC12C1CC3CC2CC(Br)(C3)C1 (stereo not shown)  femtomoles/liter          0.3
3  COC1(c2cccc(OP(=O)(O)O)c2)OOC12C1CC3CC2CC(O)(C3)C1 (single isomer, unassigned)  femtomoles/liter          0.3
4  COC1(c2cccc(OP(=O)(O)O)c2)OOC12C1CC3CC2CC(Cl)(C3)C1 (stereo not shown)  femtomoles/liter          0.4

---

- target-under-test: alkaline phosphatase (Bos taurus)
- assay-remarks: Chemiluminescent signal and signal:background with enhancer polymers (Example XVII)
- Type: biochemical
- measurement-context: polymer BAEDM; 20 min
result-type: S/N

> print(dat)
                                   compound                  target.under.test  measurement
1  COC1(c2cccc(OP(=O)(O)O)c2)OOC12C1CC3CC2CC(Cl)(C3)C1 (stereo not shown)  alkaline phosphatase (Bos taurus)        193.3
2  COC1(c2cccc(OP(=O)(O)O)c2)OOC12C1CC3CC2CC(O)(C3)C1 (single isomer, unassigned) [B-OH-AMPPD]  alkaline phosphatase (Bos taurus)         34.3
3  COC1(c2cccc(OP(=O)(O)O)c2)OOC12C1CC3CC2CC(O)(C3)C1 (single isomer, unassigned) [A-OH-AMPPD]  alkaline phosphatase (Bos taurus)         77.8
4  COC1(c2cccc(OP(=O)(O)O)c2)OOC12C1CC3CC(C1)CC2C3 (stereo not shown) [AMPPD, reference compound]  alkaline phosphatase (Bos taurus)        306.5

---

- target-under-test: alkaline phosphatase (Bos taurus, UniProt P19111)
- assay-remarks: Chemiluminescent signal and signal:background with enhancer polymers (Example XVII)
- Assay type: biochemical
- measurement-context: polymer SAPPHIRE; 20 min
Form field: S/N (one value per entry).
result-type: S/N

> print(dat)
                                   molecule  measurement
1  COC1(c2cccc(OP(=O)(O)O)c2)OOC12C1CC3CC2CC(Cl)(C3)C1 (stereo not shown)        505.4
2  COC1(c2cccc(OP(=O)(O)O)c2)OOC12C1CC3CC2CC(O)(C3)C1 (single isomer, unassigned) [A-OH-AMPPD]        292.3
3  COC1(c2cccc(OP(=O)(O)O)c2)OOC12C1CC3CC(C1)CC2C3 (stereo not shown) [AMPPD, reference compound]        353.6
4  COC1(c2cccc(OP(=O)(O)O)c2)OOC12C1CC3CC2CC(O)(C3)C1 (single isomer, unassigned) [B-OH-AMPPD]        105.3

---

- target-under-test: alkaline phosphatase-labeled DNA probe (Bos taurus)
- Construct: purchased Tropix, Inc
- Sequence (P19111 20-506 limits assumed): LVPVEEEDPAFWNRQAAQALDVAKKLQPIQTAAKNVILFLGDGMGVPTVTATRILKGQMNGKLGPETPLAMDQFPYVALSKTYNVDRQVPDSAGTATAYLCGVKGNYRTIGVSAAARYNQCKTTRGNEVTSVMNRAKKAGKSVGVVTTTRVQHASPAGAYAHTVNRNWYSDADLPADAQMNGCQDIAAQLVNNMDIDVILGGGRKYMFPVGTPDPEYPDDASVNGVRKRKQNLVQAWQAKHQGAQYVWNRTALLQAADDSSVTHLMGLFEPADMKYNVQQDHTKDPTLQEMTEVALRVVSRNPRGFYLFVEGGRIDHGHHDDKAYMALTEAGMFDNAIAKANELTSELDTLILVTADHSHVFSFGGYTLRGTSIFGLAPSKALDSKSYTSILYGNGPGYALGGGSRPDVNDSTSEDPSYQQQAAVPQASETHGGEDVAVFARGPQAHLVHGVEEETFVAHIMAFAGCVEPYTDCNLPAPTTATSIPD
- Sequence (P02701 25-152 partner): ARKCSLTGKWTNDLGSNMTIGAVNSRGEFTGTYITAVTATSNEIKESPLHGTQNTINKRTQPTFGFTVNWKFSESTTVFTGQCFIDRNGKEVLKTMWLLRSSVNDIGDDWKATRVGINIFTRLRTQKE
- assay-remarks: Alkaline phosphatase-labeled DNA probe detection in membrane with and without BDMQ blocking step (Example XV)
- measurement-context: no BDMQ blocking step; five minute exposure 40 minutes after dioxetane addition
Form field: Detection limit (in picograms DNA) 5. min. exp. (one value per entry).
result-type: Detection limit (in picograms DNA) 5. min. exp.

> print(dat)
                                   compound                         target.under.test  measurement
1  COC1(c2cccc(OP(=O)(O)O)c2)OOC12C1CC3CC2CC(O)(C3)C1 (single isomer, unassigned) [B-OH-AMPPD]  alkaline phosphatase-labeled DNA probe (Bos taurus)        5.000
2  COC1(c2cccc(OP(=O)(O)O)c2)OOC12C1CC3CC2CC(Br)(C3)C1 (centres unmarked)  alkaline phosphatase-labeled DNA probe (Bos taurus)        1.250
3  COC1(c2cccc(OP(=O)(O)O)c2)OOC12C1CC3CC2CC(O)(C3)C1 (single isomer, unassigned) [A-OH-AMPPD]  alkaline phosphatase-labeled DNA probe (Bos taurus)        5.000
4  COC1(c2cccc(OP(=O)(O)O)c2)OOC12C1CC3CC(C1)CC2C3 (centres unmarked) [AMPPD, reference compound]  alkaline phosphatase-labeled DNA probe (Bos taurus)        2.500
5  COC1(c2cccc(OP(=O)(O)O)c2)OOC12C1CC3CC2CC(Cl)(C3)C1 (centres unmarked)  alkaline phosphatase-labeled DNA probe (Bos taurus)        1.250

---

Form field: chemiluminescent signal-to-noise level (one value per entry).
- target-under-test: alkaline phosphatase (Bos taurus, UniProt P19111)
- assay-remarks: Chemiluminescent signal-to-noise levels with enhancers (Example XXIV)
- Format: biochemical
- measurement-context: SAPPHIRE 1 1 mg/ml; 5 min
result-type: chemiluminescent signal-to-noise level

> print(dat)
                                   molecule                             result.type  measurement
1  COC1(c2cccc(OP(=O)(O)O)c2)OOC12C1CC3CC2CC(Br)(C3)C1 (stereo not shown) [Br-AMPPD]  chemiluminescent signal-to-noise level          383
2  COC1(c2cccc(OP(=O)(O)O)c2)OOC12C1CC3CC2CC(O)(C3)C1 (single isomer, unassigned) [HO-AMPPD]  chemiluminescent signal-to-noise level          229
3  COC1(c2cccc(OP(=O)(O)O)c2)OOC12C1CC3CC2CC(Cl)(C3)C1 (stereo not shown) [Cl-AMPPD]  chemiluminescent signal-to-noise level          577
4  COC1(c2cccc(OP(=O)(O)O)c2)OOC12C1CC3CC(C1)CC2C3 (stereo not shown) [AMPPD, reference compound]  chemiluminescent signal-to-noise level          159
